Origin of measurements: patent US20120208781A1

Assay: Pharmacokinetics of Compound 1 after single bolus IV injection in beagle dogs (plasma)
Assay type: in vivo
Conditions: male, beagle, dog, plasma, iv, 10 mg/kg, beagle dogs, 10 mg/kg single bolus IV; Dog 602
reported metric: AUC(0-inf)
Answer with the number, then the unit.

## Input Specify measured AUC(0-inf) for CN[C@@H]1[C@@H](O)[C@@H](O[C@@H]2[C@@H](O)[C@H](O[C@H]3OC(CNCCO)=CC[C@H]3N)[C@@H](N)C[C@H]2NC(=O)[C@@H](O)CCN)OC[C@]1(C)O [Compound 1] .
## Output 88700 ng·h/mL

###

Assay: Pharmacokinetics of Compound 1 after single bolus IV injection in beagle dogs (plasma)
Assay type: in vivo
Conditions: male, beagle, dog, plasma, iv, 10 mg/kg, beagle dogs, 10 mg/kg single bolus IV; Dog 602
reported metric: C0 (µg/mL)
The reply should be a number in µg/mL, with the unit left off.

## Input Specify measured C0 for "CN[C@@H]1[C@@H](O)[C@@H](O[C@@H]2[C@@H](O)[C@H](O[C@H]3OC(CNCCO)=CC[C@H]3N)[C@@H](N)C[C@H]2NC(=O)[C@@H](O)CCN)OC[C@]1(C)O" .
## Output 119

###

Assay: Pharmacokinetics of Compound 1 after single bolus IV injection in rats
Assay type: in vivo, Sprague Dawley rats
Details: Sprague Dawley, rat, plasma, iv, 10 mg/kg, 10 mg/kg single bolus IV, Rat 101
reported metric: AUC(0-inf) (µg·h/mL)
The reply should be a number in µg·h/mL, with the unit left off.

## Input Specify measured AUC(0-inf) for CN[C@@H]1[C@@H](O)[C@@H](O[C@@H]2[C@@H](O)[C@H](O[C@H]3OC(CNCCO)=CC[C@H]3N)[C@@H](N)C[C@H]2NC(=O)[C@@H](O)CCN)OC[C@]1(C)O [Compound 1] .
## Output 13.8

###

Experiment: First-in-human phase 1 study: plasma pharmacokinetics of Compound 1
Format: in vivo
Details: both sexes, human, plasma, intravenous, 15 mg/kg, human plasma, single dose, 48 hours, Cohort 4 (15 mg/kg), noncompartmental analysis, ± SD
reported metric: Cmax

## Input Specify measured Cmax for CN[C@@H]1[C@@H](O)[C@@H](O[C@@H]2[C@@H](O)[C@H](O[C@H]3OC(CNCCO)=CC[C@H]3N)[C@@H](N)C[C@H]2NC(=O)[C@@H](O)CCN)OC[C@]1(C)O [Compound 1] .
## Output 144 µg/mL

###

Experiment: Pharmacokinetics of Compound 1 after single bolus IV injection in beagle dogs (plasma)
Format: in vivo
Details: male, beagle, dog, plasma, intravenous, 10 mg/kg; dogs; read-out: t½ (renal clearance) (converted)
reported metric: half-life

## Input Specify measured half-life for "CN[C@@H]1[C@@H](O)[C@@H](O[C@@H]2[C@@H](O)[C@H](O[C@H]3OC(CNCCO)=CC[C@H]3N)[C@@H](N)C[C@H]2NC(=O)[C@@H](O)CCN)OC[C@]1(C)O" .
## Output ~1 h

###

Test: Plasma protein binding by equilibrium dialysis
Type: in vitro ADME
Method: Bioanalytical data analyses were carried out using Analyst software (version 1.4.1, Applied Biosystems, Toronto, ON, Canada). […] PK parameters were determined by noncompartmental analysis using WinNonLin. Plasma protein binding was determined using equilibrium dialysis. In vitro stability was determined using commercially available plasma, microsomes and hepatocytes.
reported metric: fraction unbound

## Input Specify measured fraction unbound for "CN[C@@H]1[C@@H](O)[C@@H](O[C@@H]2[C@@H](O)[C@H](O[C@H]3OC(CNCCO)=CC[C@H]3N)[C@@H](N)C[C@H]2NC(=O)[C@@H](O)CCN)OC[C@]1(C)O" .
## Output > 0.8

###

Details: rat, in vivo, 30 mg/kg
reported metric: Body weight Day 14 (g)
The reply should be a number in g, with the unit left off.

## Input Specify measured Body weight Day 14 for "NC[C@H]1O[C@H](O[C@H]2[C@H](O)[C@@H](O[C@H]3O[C@H](CO)[C@@H](O)[C@H](N)[C@H]3O)[C@H](N)C[C@@H]2N)[C@H](N)C[C@@H]1O" .
## Output 330

###

Assay: Phase 1 study 15 mg/kg/day once daily for five days: pharmacokinetics
Type: in vivo
Conditions: plasma; human, after 5 days of once-daily IV 15 mg/kg; read-out: peak (Cmax)
reported metric: Cmax (µg/mL)
The reply should be a number in µg/mL, with the unit left off.

## Input Specify measured Cmax for CN[C@@H]1[C@@H](O)[C@@H](O[C@@H]2[C@@H](O)[C@H](O[C@H]3OC(CNCCO)=CC[C@H]3N)[C@@H](N)C[C@H]2NC(=O)[C@@H](O)CCN)OC[C@]1(C)O [Compound 1] .
## Output 113

###

Experiment: Urine concentration analysis / urinary recovery of Compound 1 in beagle dogs
Assay type: in vivo
Details: male, beagle, dog, urine, iv, 10 mg/kg, 10 mg/kg IV, Dog 6003, 12 hr, read-out: Cmpd 1 urine concentration
reported metric: concentration at 12 h (µg/mL)
The reply should be a number in µg/mL, with the unit left off.

## Input Specify measured concentration at 12 h for "CN[C@@H]1[C@@H](O)[C@@H](O[C@@H]2[C@@H](O)[C@H](O[C@H]3OC(CNCCO)=CC[C@H]3N)[C@@H](N)C[C@H]2NC(=O)[C@@H](O)CCN)OC[C@]1(C)O" .
## Output 100

###

Details: rat, in vivo, 100 mg/kg
reported metric: Body weight Day 9 (g)
The reply should be a number in g, with the unit left off.

## Input Specify measured Body weight Day 9 for "NC[C@H]1O[C@H](O[C@H]2[C@H](O)[C@@H](O[C@H]3O[C@H](CO)[C@@H](O)[C@H](N)[C@H]3O)[C@H](N)C[C@@H]2N)[C@H](N)C[C@@H]1O" .
## Output 280

###

Assay: First-in-human phase 1 study: plasma pharmacokinetics of Compound 1
Assay type: in vivo
Conditions: both sexes, human, plasma, intravenous, 11 mg/kg, human plasma, single dose, 24 hours, Cohort 3 (11 mg/kg), compartmental (2) analysis, ± SE; read-out: t1/2 alpha (converted)
reported metric: half-life (min)
The reply should be a number in min, with the unit left off.

## Input Specify measured half-life for "CN[C@@H]1[C@@H](O)[C@@H](O[C@@H]2[C@@H](O)[C@H](O[C@H]3OC(CNCCO)=CC[C@H]3N)[C@@H](N)C[C@H]2NC(=O)[C@@H](O)CCN)OC[C@]1(C)O" .
## Output 18

###

Details: rat, in vivo, 30 mg/kg
reported metric: Body weight Day 6 (g)
The reply should be a number in g, with the unit left off.

## Input Specify measured Body weight Day 6 for "NC[C@H]1O[C@H](O[C@H]2[C@H](O)[C@@H](O[C@H]3O[C@H](CO)[C@@H](O)[C@H](N)[C@H]3O)[C@H](N)C[C@@H]2N)[C@H](N)C[C@@H]1O" .
## Output 288
